System: 3D7-MR4 trophozoite parasite-infected RBCs
procedure.text: Metabolomic profiling (hydrophilic metabolite changes, UHPLC-MS)
Type: cell-based, Plasmodium falciparum
condition.set: metabolite malate
Field: class. Source value: Log2(fold change) malate. Ranges: interval 1 (below -0.4), interval 2 (-0.4 to below -0.1), interval 3 (-0.1 or more)

                                    compound  group_label
 0  CCOC(=O)C1=C(C)NC2=C(C(=O)CC(c3ccc(OC)c(OC)c3)C2)C1c1ccccc1Cl (stereo not shown) [GNF-Pf-5660, reference compound]   interval 1
 1  CN(C)c1ccc2nc3ccc(=[N+](C)C)cc-3sc2c1 [Methylene blue, reference compound]   interval 3
 2  COCCNCC(O)Cn1c2ccc(Cl)cc2c2cc(Cl)ccc21 (stereo not shown)   interval 3
 3  Clc1ccc2c(N3CCN(CCCN4CCN(c5ccnc6cc(Cl)ccc56)CC4)CC3)ccnc2c1 [Piperaquine, reference compound]   interval 3
 4  COc1cc(-c2nc(-c3ccccc3)c(-c3ccccc3)[nH]2)ccc1OCCN(C)C   interval 2
 5  FC(F)(F)c1cccc(Nc2nc3ccccc3nc2Nc2cccc(C(F)(F)F)c2)c1   interval 1
 6  Cc1cc(Nc2ccc(S(F)(F)(F)(F)F)cc2)n2nc(C(C)(F)F)nc2n1 [DSM265, reference compound]   interval 2
 7  Cc1cc(Nc2ccc(OCc3ccccc3)cc2)nc2cc(O)ccc12   interval 1
 8  CCCCN(CCCC)CC(O)c1cc(Cl)cc2c1-c1ccc(Cl)cc1/C2=C/c1ccc(Cl)cc1 (stereo not shown) [Lumefantrine, reference compound]   interval 2
 9  CC(C)(C)NCc1cc(Nc2ccnc3cc(Cl)ccc23)c2c(c1O)CCCC2 [Naphtoquine, Naphthoquine, reference compound]   interval 3
10  C[C@H]1Cc2c([nH]c3cc(Cl)c(F)cc23)[C@@]2(N1)C(=O)Nc1ccc(Cl)cc12 [KAE609, reference compound]   interval 3
11  FC(F)(F)c1ccc(Nc2cc3[nH]c(-c4cccc(C(F)(F)F)c4)nc3cn2)nc1   interval 2
12  CCCN(CCC)CC(O)COc1ccccc1C(=O)Nc1ccccc1 (stereo not shown)   interval 3
13   CC(C)(C)c1ccc2c(c1)CN(Cc1ccc(Cl)cc1)CO2   interval 1
14  COc1ccc(C2c3ccc4ccccc4c3Oc3ncn(CCCN(C)C)c(=N)c32)cc1 (stereo not shown)   interval 2
